Recorded values, source paper PMC9482650.

# experimental.system: FRMPD2_3, Q68DX3
# Sequence (Q68DX3 1073-1166): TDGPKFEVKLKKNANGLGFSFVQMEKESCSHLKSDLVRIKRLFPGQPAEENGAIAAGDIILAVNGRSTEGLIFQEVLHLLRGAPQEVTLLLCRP
# assay.text: holdup assay
# Parameters: key: below the threshold = too weak to quantify, mostly under pKd 3.1 to 4
# condition.description: plain residues with an end cap or a label only (N-terminal biotin on a linker: ado-ado)
measured.property: pKd

{"binder": "GFGEERESIL [KIDINS220, Q9ULH0]", "pKd": "below the threshold"}
{"binder": "QKNKDKEYYV [NRXN3_rs746444206, Q9Y4C0]", "pKd": 4.23}
{"binder": "TETASVCTKV [SLC23A1, Q9UHI7]", "pKd": "below the threshold"}
{"binder": "FVHPILQSAV [PRKCA, P17252]", "pKd": "below the threshold"}

Would you kindly look at the next entry?
Answer with the recorded pKd for the binder listed here: EEPEERHTEL [CES2, O00748]
below the threshold
